Source: patent US20240075137A1

Consider the following binders; for each one, report its pIC50.
Target: T1, human TIGIT on cells (human, UniProt Q495A1 22-141)
T1 construct: also called Expi293 human TIGIT over-expressing cells
T1 sequence: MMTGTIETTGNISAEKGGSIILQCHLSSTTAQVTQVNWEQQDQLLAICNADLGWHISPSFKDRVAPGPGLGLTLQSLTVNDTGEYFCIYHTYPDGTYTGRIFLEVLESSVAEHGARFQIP
Test details: FACS blocking of human PVR-m2aFc binding to human TIGIT OE Expi293 cells; binding site concentration; n=1
Just so you know, pIC50 here is -log10 of the concentration in molar units; reply with that number alone.

Input line: Look up pIC50 for this binder: CHA.9.547.7.H4(S241P) (antibody, human IgG4 S228P, kappa, V domains shown, humanized hybridoma anti-TIGIT antibody, human IgG4) VH: EVQLVESGGGLVQPGGSLRLSCAASGFTFSSYIMSWVRQAPGKGLEWVATISGGGTNTYYADSVKGRFTISRDNSKNTLYLQMNSLRAEDTAVYYCAKWLLSYYAMDYWGQGTLVTVSS VL: DIQMTQSPSSLSASVGDRVTITCRASQNINVWLTWYQQKPGKAPKLLIYKASKSHTGVPSRFSGSGSGTDFTLTISSLQPEDFATYYCQQGQSYPYTFGQGTKLEIKR
Output line: 9.68

Input line: Also CHA.9.547.13.H4(S241P) (antibody, human IgG4, V domains shown, humanized hybridoma antibody, human IgG4 (S241P)) VH: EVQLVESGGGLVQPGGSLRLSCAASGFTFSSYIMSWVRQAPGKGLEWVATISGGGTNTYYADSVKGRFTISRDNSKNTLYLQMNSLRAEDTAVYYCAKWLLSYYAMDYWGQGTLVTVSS VL: DIQMTQSPSSLSASVGDRITITCRASQNINVWLSWYQQKPGKAPKLLIYKASKSHTGVPSRFSGSGSGTDFTLTISSLQPEDFATYYCQQGQSYPYTFGQGTKLEIK , if possible.
Output line: 9.59

Input line: Also BM29 hIgG4 (antibody, V domains shown, benchmark anti-human TIGIT antibody, human IgG4 with S241P; also called BM29-H4; US2016/0176963A1 Clone 22G2 as hIgG4) VH: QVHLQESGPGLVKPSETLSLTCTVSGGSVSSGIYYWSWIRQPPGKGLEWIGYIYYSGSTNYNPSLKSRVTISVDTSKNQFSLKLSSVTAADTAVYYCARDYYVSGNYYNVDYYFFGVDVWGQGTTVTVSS VL: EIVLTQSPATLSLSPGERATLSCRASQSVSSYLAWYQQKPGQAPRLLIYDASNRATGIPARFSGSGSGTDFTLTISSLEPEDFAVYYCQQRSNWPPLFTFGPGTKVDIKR , if possible.
Output line: 9.00

Input line: Also CPA.9.083.H4(S241P) (antibody, human IgG4, V domains shown) VH: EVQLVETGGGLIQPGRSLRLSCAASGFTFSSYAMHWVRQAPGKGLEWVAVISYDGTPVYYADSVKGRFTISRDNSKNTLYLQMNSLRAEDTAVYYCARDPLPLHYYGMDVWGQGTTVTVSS VL: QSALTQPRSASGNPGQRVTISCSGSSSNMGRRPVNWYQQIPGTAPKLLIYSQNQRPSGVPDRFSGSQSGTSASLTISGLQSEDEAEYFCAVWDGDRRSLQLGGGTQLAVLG , if possible.
Output line: 9.33

Input line: Also BM26 hIgG4 (antibody, V domains shown, benchmark anti-human TIGIT antibody, human IgG4 with S241P; also called BM26-H4; WO2016/028656A1 Clone 3106 as hIgG4) VH: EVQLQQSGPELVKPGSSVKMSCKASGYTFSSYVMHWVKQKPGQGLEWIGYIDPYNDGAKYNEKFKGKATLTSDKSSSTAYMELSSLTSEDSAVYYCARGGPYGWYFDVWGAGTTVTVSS VL: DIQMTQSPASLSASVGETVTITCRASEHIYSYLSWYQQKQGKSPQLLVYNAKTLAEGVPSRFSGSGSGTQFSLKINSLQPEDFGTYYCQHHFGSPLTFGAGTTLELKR , if possible.
Output line: 9.35

Input line: Also CPA.9.086.H4(S241P) (antibody, human IgG4 S228P, lambda, V domains shown) VH: EVQLVETGGGLIQPGRSLRLSCAASGFTFSSYAMHWVRQAPGKGLEWVAVISYAGEVKYYADSVKGRFTISRDNSKNTLYLQMNSLRAEDTAVYYCARDPLPLHYYGMDVWGQGTTVTVSS VL: QSALTQPRSASGNPGQRVTISCSGSSSNMGRRPVNWYQQIPGTAPKLLIYSQNQRPSGVPDRFSGSQSGTSASLTISGLQSEDEAEYFCAVWDDIGRVLQLGGGTQLAVLG , if possible.
Output line: 9.44
